B1: FADS1 (parent)
chain: LNFQIEHHLFPTMPRHNYHKVAPL

- Variants of: B1
- experiment: protein stability index of a GFP-peptide fusion (GPS, HEK-293T) (PSI 1-6); higher = more stable;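 also: lentivirally expressed fusions sorted by FACS into six bins by GFP to DsRed ratio, PSI derived from sequencing read proportions per bin multiplied by bin number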
- condition.notes: c terminus: a fixed tail appended
Label y when protein stability index is at or above 2; otherwise label n.

Exercise: Check this variant for protein stability index at or above 2: F10K
Solution: y

Exercise: Check this variant for protein stability index at or above 2: H8F
Solution: y

Exercise: Check this variant for protein stability index at or above 2: H16D
Solution: y

Exercise: Check this variant for protein stability index at or above 2: Y18L
Solution: n

Exercise: Check this variant for protein stability index at or above 2: H8V
Solution: n

Exercise: Check this variant for protein stability index at or above 2: M13K
Solution: n

Exercise: Check this variant for protein stability index at or above 2: L24C
Solution: y

Exercise: Check this variant for protein stability index at or above 2: K20Y
Solution: y

Exercise: Check this variant for protein stability index at or above 2: P11V
Solution: y

Exercise: Check this variant for protein stability index at or above 2: F10C
Solution: y

Exercise: Check this variant for protein stability index at or above 2: M13D
Solution: n

Exercise: Check this variant for protein stability index at or above 2: L24G
Solution: y

Exercise: Check this variant for protein stability index at or above 2: P14E
Solution: y

Exercise: Check this variant for protein stability index at or above 2: Y18R
Solution: n

Exercise: Check this variant for protein stability index at or above 2: L24E
Solution: y

Exercise: Check this variant for protein stability index at or above 2: L9A
Solution: n

Exercise: Check this variant for protein stability index at or above 2: T12V
Solution: y

Exercise: Check this variant for protein stability index at or above 2: R15A
Solution: y

Exercise: Check this variant for protein stability index at or above 2: I5H
Solution: n

Exercise: Check this variant for protein stability index at or above 2: A22N
Solution: n

Exercise: Check this variant for protein stability index at or above 2: K20C
Solution: y

Exercise: Check this variant for protein stability index at or above 2: R15K
Solution: y

Exercise: Check this variant for protein stability index at or above 2: P14I
Solution: y

Exercise: Check this variant for protein stability index at or above 2: R15E
Solution: n

Exercise: Check this variant for protein stability index at or above 2: H7W
Solution: y

Exercise: Check this variant for protein stability index at or above 2: R15G
Solution: y

Exercise: Check this variant for protein stability index at or above 2: E6R
Solution: y

Exercise: Check this variant for protein stability index at or above 2: Q4F
Solution: y

Exercise: Check this variant for protein stability index at or above 2: V21I
Solution: y

Exercise: Check this variant for protein stability index at or above 2: P23S
Solution: n

Exercise: Check this variant for protein stability index at or above 2: L1Q
Solution: y

Exercise: Check this variant for protein stability index at or above 2: V21N
Solution: n

Exercise: Check this variant for protein stability index at or above 2: H8I
Solution: y

Exercise: Check this variant for protein stability index at or above 2: N17E
Solution: y

Exercise: Check this variant for protein stability index at or above 2: Q4L
Solution: y

Exercise: Check this variant for protein stability index at or above 2: V21C
Solution: y

Exercise: Check this variant for protein stability index at or above 2: L9Q
Solution: n

Exercise: Check this variant for protein stability index at or above 2: L9E
Solution: n

Exercise: Check this variant for protein stability index at or above 2: H8N
Solution: y

Exercise: Check this variant for protein stability index at or above 2: H19M
Solution: y

Exercise: Check this variant for protein stability index at or above 2: H19D
Solution: y

Exercise: Check this variant for protein stability index at or above 2: E6D
Solution: y

Exercise: Check this variant for protein stability index at or above 2: P23Y
Solution: n

Exercise: Check this variant for protein stability index at or above 2: I5S
Solution: y

Exercise: Check this variant for protein stability index at or above 2: H19N
Solution: y

Exercise: Check this variant for protein stability index at or above 2: K20V
Solution: n

Exercise: Check this variant for protein stability index at or above 2: Q4C
Solution: n

Exercise: Check this variant for protein stability index at or above 2: F3D
Solution: y

Exercise: Check this variant for protein stability index at or above 2: P14F
Solution: y

Exercise: Check this variant for protein stability index at or above 2: H16R
Solution: y

Exercise: Check this variant for protein stability index at or above 2: A22W
Solution: y

Exercise: Check this variant for protein stability index at or above 2: Y18K
Solution: y

Exercise: Check this variant for protein stability index at or above 2: H7P
Solution: y

Exercise: Check this variant for protein stability index at or above 2: F10Y
Solution: y

Exercise: Check this variant for protein stability index at or above 2: F10L
Solution: n

Exercise: Check this variant for protein stability index at or above 2: V21R
Solution: n

Exercise: Check this variant for protein stability index at or above 2: E6A
Solution: y

Exercise: Check this variant for protein stability index at or above 2: Y18I
Solution: y

Exercise: Check this variant for protein stability index at or above 2: H8A
Solution: n

Exercise: Check this variant for protein stability index at or above 2: M13E
Solution: n

Exercise: Check this variant for protein stability index at or above 2: E6N
Solution: n

Exercise: Check this variant for protein stability index at or above 2: P11K
Solution: y

Exercise: Check this variant for protein stability index at or above 2: Q4K
Solution: n

Exercise: Check this variant for protein stability index at or above 2: P23D
Solution: n

Exercise: Check this variant for protein stability index at or above 2: M13N
Solution: n

Exercise: Check this variant for protein stability index at or above 2: Q4H
Solution: y

Exercise: Check this variant for protein stability index at or above 2: R15S
Solution: y

Exercise: Check this variant for protein stability index at or above 2: P11Y
Solution: y

Exercise: Check this variant for protein stability index at or above 2: L1Y
Solution: n

Exercise: Check this variant for protein stability index at or above 2: Y18N
Solution: n

Exercise: Check this variant for protein stability index at or above 2: T12L
Solution: y
